- EXPERIMENTAL SYSTEM: T1, 4H2438-bN
- T1 chain: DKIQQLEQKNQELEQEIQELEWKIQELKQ
- ASSAY PROTOCOL: two-hybrid library CCNG1;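 also: natural log of median RNA to DNA barcode read ratio; higher means stronger binding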
PROPERTY NAME: interaction score

Solved cases (4 shown):
- BINDER: "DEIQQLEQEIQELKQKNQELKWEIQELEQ [4H121-bN]"
  interaction score: 1.48
- BINDER: "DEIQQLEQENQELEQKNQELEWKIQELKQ [4H182-bN]"
  interaction score: -0.143
- BINDER: "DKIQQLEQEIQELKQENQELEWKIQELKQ [4H2134-bN]"
  interaction score: 0.477
- BINDER: "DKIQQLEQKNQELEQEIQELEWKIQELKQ [4H2438-bN]"
  interaction score: 1.09

1. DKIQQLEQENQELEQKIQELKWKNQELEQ [4H2223-bN]
2. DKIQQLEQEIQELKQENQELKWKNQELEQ [4H2143-bN]
[ask] Hi there, can you help? I need to know whether 1 or 2 has lower measured interaction score. Respond with the label that goes with your answer.
[reply] 1
(1: -0.0421, 2: 0.267)
